# assay details: xn = mol fraction of the nth substance listed
# condition label: 288.15 K; 100.5 kPa; Liquid; x1 = 0.4
reported property: viscosity (mPa·s)

>>> reading("CCCCCCCC(=O)OCC [ethyl octanoate] + CCO")
1.398
>>> reading("CC(=O)OCCC(C)C [3-methylbutyl ethanoate] + CCO")
0.934
>>> reading("CCCC(=O)OCCC(C)C [3-methylbutyl butanoate] + CCO")
1.17
>>> reading("CCOC(=O)Cc1ccccc1 [ethyl phenylacetate] + CCO")
1.822

I = CCCCCC(=O)OCC [ethyl hexanoate] + CCO
II = CCOC(=O)c1ccccc1 [ethyl benzoate] + CCO
-- ask Quick one: lower viscosity, I or II ? Write down the label attached to your selection.
-- reply I
